FYI, the data here is from ChEMBL document CHEMBL1142961.

Target: Aminopeptidase N (Plasmodium falciparum FcB1/Columbia)
Sequence (whole entry): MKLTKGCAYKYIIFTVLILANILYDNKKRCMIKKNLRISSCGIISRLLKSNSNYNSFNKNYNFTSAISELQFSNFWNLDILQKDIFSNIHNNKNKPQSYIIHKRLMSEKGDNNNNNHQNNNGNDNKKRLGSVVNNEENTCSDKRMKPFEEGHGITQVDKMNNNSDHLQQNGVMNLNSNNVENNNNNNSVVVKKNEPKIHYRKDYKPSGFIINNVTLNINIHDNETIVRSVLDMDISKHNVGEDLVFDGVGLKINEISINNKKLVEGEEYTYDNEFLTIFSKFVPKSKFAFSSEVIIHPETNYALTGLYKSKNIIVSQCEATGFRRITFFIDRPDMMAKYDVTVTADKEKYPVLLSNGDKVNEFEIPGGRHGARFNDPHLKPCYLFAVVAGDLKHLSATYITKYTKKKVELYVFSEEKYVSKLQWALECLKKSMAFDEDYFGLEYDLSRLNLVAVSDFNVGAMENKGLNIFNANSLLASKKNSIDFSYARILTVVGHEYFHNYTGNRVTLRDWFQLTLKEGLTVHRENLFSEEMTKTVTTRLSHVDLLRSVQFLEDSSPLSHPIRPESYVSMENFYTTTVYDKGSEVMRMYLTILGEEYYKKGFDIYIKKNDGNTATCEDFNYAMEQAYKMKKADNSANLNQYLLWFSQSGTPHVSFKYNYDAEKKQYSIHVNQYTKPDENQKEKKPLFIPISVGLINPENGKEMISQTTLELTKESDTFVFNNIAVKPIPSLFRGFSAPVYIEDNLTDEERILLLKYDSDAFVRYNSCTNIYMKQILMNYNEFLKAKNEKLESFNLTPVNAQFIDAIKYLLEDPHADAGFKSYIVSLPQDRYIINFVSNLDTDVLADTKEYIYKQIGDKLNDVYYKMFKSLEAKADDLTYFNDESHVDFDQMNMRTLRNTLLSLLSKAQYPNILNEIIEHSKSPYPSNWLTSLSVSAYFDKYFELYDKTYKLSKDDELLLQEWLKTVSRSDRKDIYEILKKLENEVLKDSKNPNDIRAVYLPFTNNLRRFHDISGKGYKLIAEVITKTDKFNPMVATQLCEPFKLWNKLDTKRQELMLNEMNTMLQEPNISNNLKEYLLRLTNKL
Experiment: Inhibition of Plasmodium falciparum FcB1 M1 aminopeptidase at 10 uM
value.kind: inhibition (%)

// worked examples, inhibition included
O=C(CC(=O)N1CCC(Cc2ccccc2)CC1)NO = 7
O=C(NO)C(Cc1cccc(Oc2ccccc2)c1)C(=O)NCCNc1cccc2ccccc12 (stereo unspecified) = 66
CC(C)CC(C(=O)NO)C(=O)NCc1cccc(Oc2ccccc2)c1 (stereo unspecified) = 88
CN(CCCNC(=O)C(Cc1ccccc1)C(=O)NO)c1ccccc1 (stereo unspecified) = 67

A: O=C(NO)C(Cc1cccc(Oc2ccccc2)c1)C(=O)N1CCc2ccccc2C1 (stereo unspecified)
B: CN(CCCCc1ccccc1)C(=O)CC(=O)NO
Lookup: Endpoint returns whichever of A and B has the numerically higher inhibition. Identify your pick by its label.
Found: A

###

Biological target: Aminopeptidase N (Sus scrofa) (UniProt P15145)
Sequence (whole entry): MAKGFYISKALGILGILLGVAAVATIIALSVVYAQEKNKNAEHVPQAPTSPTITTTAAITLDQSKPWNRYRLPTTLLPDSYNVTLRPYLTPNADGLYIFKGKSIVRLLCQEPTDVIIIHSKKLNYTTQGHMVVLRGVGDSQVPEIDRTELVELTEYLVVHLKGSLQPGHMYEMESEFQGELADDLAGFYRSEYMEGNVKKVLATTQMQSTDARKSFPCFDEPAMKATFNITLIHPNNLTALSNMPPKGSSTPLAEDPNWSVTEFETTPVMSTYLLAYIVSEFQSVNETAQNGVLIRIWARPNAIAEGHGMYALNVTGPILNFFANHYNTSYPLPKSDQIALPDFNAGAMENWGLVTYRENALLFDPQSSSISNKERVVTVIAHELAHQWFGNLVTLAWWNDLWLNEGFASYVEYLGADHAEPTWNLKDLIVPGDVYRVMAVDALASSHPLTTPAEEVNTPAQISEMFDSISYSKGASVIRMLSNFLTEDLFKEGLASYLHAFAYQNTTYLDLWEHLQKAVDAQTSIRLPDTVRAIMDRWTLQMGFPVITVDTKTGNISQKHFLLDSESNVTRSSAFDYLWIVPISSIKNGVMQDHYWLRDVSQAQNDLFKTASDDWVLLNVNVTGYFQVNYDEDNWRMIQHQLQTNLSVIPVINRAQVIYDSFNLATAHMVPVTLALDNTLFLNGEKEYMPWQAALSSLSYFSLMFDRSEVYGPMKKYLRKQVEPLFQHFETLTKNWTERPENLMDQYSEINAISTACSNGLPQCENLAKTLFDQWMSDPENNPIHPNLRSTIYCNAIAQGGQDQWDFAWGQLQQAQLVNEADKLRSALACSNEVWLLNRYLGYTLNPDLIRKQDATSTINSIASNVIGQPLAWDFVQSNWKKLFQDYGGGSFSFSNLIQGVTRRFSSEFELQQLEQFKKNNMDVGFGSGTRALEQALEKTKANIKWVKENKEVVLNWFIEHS
Assay: Inhibition of pig kidney microsomal APN at 10 uM
value.kind: inhibition (%)

// worked examples, inhibition included
O=C(NO)C(Cc1ccccc1)C(=O)N1CCC2(CCNc3ccccc3O2)CC1 (configuration not stated) = 32
Cc1ccccc1CNC(=O)C(CC(C)C)C(=O)NO (configuration not stated) = 98

I: O=C(NO)C(Cc1ccccc1)C(=O)N1CCc2ccccc2C1 (configuration not stated)
II: CC(C)CC(C(=O)NO)C(=O)N(CCc1ccccc1)Cc1ccccc1 (configuration not stated)
Lookup: Please indicate which entry, I or II , has the lower recorded inhibition value. Identify your pick by its label.
Found: I

I: O=C(NO)C(Cc1ccccc1)C(=O)N1CCN(Cc2ccccc2)CC1 (configuration not stated)
II: O=C(NO)C(Cc1ccccc1)C(=O)NCc1ccc(C(F)(F)F)cc1 (configuration not stated)
III: CC(C)CC(C(=O)NO)C(=O)NCc1ccccc1 (configuration not stated)
IV: CN(CCCCc1ccccc1)C(=O)CC(=O)NO
Lookup: Thanks in advance: please rank these 4 entries by inhibition, highest to lowest. // format: requested-order list of labels
Found: II, III, I, IV

A: O=C(NO)C(Cc1cccc(Oc2ccccc2)c1)C(=O)NCc1ccc(Cl)cc1 (configuration not stated)
B: CN(CCCNC(=O)CC(=O)NO)c1ccccc1
C: CN(CCCCc1ccccc1)C(=O)C(Cc1ccccc1)C(=O)NO (configuration not stated)
D: O=C(CC(=O)N[C@H]1CCN(Cc2ccccc2)C1)NO
Lookup: Hey, can you sort those molecules up there by inhibition, smallest first? // format: requested-order list of labels
Found: D, B, C, A
